Attribution: the supplement of paper PMC11246515

experimental_details: total protein half-life in vivo (active degradation + dilution); higher = more stable protein
details: E. coli NCM3722 delta-hslV; growth: N-lim chemostat; doubling time 6 h
Lab note: anything with total protein half-life in vivo at or over 5 h counts as 1; the rest go in -1.

Prompt: # bool: total protein half-life in vivo of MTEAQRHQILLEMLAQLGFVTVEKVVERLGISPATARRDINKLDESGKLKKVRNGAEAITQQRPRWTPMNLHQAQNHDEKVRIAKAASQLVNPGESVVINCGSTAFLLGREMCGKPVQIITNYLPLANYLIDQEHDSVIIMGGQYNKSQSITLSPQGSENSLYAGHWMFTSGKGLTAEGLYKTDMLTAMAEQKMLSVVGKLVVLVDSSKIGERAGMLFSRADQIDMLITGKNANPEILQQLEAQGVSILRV [P0A9W0] >= 5 h
Response: 1

Prompt: # bool: total protein half-life in vivo of MRSKYIVIEGLEGAGKTTARNVVVETLEQLGIRDMVFTREPGGTQLAEKLRSLVLDIKSVGDEVITDKAEVLMFYAARVQLVETVIKPALANGTWVIGDRHDLSTQAYQGGGRGIDQHMLATLRDAVLGDFRPDLTLYLDVTPEVGLKRARARGELDRIEQESFDFFNRTRARYLELAAQDKSIHTIDATQPLEAVMDAIRTTVTHWVKELDA [P0A720] >= 5 h
Response: -1

Prompt: # bool: total protein half-life in vivo of MLNIVLYEPEIPPNTGNIIRLCANTGFRLHIIEPMGFAWDDKRLRRAGLDYHEFTAVTRHHDYRAFLEAENPQRLFALTTKGTPAHSAVSYQDGDYLMFGPETRGLPASILDALPAEQKIRIPMVPDSRSMNLSNAVSVVVYEAWRQLGYPGAVLRD [P0AGJ7] >= 5 h
Response: 1

Prompt: # bool: total protein half-life in vivo of MTDKLTSLRQYTTVVADTGDIAAMKLYQPQDATTNPSLILNAAQIPEYRKLIDDAVAWAKQQSNDRAQQIVDATDKLAVNIGLEILKLVPGRISTEVDARLSYDTEASIAKAKRLIKLYNDAGISNDRILIKLASTWQGIRAAEQLEKEGINCNLTLLFSFAQARACAEAGVFLISPFVGRILDWYKANTDKKEYAPAEDPGVVSVSEIYQYYKEHGYETVVMGASFRNIGEILELAGCDRLTIAPALLKELAESEGAIERKLSYTGEVKARPARITESEFLWQHNQDPMAVDKLAEGIRKFAIDQEKLEKMIGDLL [P0A870] >= 5 h
Response: 1

Prompt: # bool: total protein half-life in vivo of MIYLRKANERGHANHGWLDSWHTFSFANYYDPNFMGFSALRVINDDVIEAGQGFGTHPHKDMEILTYVLEGTVEHQDSMGNKEQVPAGEFQIMSAGTGIRHSEYNPSSTERLHLYQIWIMPEENGITPRYEQRRFDAVQGKQLVLSPDARDGSLKVHQDMELYRWALLKDEQSVHQIAAERRVWIQVVKGNVTINGVKASTSDGLAIWDEQAISIHADSDSEVLLFDLPPV >= 5 h
Response: -1

Prompt: # bool: total protein half-life in vivo of MPKLILASTSPWRRALLEKLQISFECAAPEVDETPRSDESPRQLVLRLAQEKAQSLASRYPDHLIIGSDQVCVLDGEITGKPLTEENARLQLRKASGNIVTFYTGLALFNSANGHLQTEVEPFDVHFRHLSEAEIDNYVRKEHPLHCAGSFKSEGFGITLFERLEGRDPNTLVGLPLIALCQMLRREGKNPLMG [P0A729] >= 5 h
Response: -1

###

experimental_details: total protein half-life in vivo (active degradation + dilution); higher = more stable protein
details: E. coli NCM3722 delta-smpB; growth: N-lim chemostat; doubling time 6 h
Lab note: anything with total protein half-life in vivo at or over 4 h counts as 1 (yes); the rest go in 0 (no).

Some solved entries appear below for comparison.
[
  {
    "chain_sequence": "MLKTIQDKARHRTRPLWAWLKLLWQRIDEDNMTTLAGNLAYVSLLSLVPLVAVVFALFAAFPMFSDVSIQLRHFIFANFLPATGDVIQRYIEQFVANSNKMTAVGACGLIVTALLLMYSIDSALNTIWRSKRARPKIYSFAVYWMILTLGPLLAGASLAISSYLLSLRWASDLNTVIDNVLRIFPLLLSWISFWLLYSIVPTIRVPNRDAIVGAFVAALLFEAGKKGFALYITMFPSYQLIYGVLAVIPILFVWVYWTWCIVLLGAEITVTLGEYRKLKQAAEQEEDDEP [P0A8K8]",
    "label_class": "1 (yes)"
  },
  {
    "chain_sequence": "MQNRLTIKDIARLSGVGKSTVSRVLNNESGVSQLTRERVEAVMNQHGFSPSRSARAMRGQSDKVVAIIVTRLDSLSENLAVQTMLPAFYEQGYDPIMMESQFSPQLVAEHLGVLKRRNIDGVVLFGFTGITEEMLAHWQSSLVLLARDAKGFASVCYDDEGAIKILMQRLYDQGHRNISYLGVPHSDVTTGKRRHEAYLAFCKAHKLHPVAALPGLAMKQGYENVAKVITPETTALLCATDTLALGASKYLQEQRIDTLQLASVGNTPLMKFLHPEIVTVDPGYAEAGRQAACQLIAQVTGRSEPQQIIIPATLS",
    "label_class": "1 (yes)"
  },
  {
    "chain_sequence": "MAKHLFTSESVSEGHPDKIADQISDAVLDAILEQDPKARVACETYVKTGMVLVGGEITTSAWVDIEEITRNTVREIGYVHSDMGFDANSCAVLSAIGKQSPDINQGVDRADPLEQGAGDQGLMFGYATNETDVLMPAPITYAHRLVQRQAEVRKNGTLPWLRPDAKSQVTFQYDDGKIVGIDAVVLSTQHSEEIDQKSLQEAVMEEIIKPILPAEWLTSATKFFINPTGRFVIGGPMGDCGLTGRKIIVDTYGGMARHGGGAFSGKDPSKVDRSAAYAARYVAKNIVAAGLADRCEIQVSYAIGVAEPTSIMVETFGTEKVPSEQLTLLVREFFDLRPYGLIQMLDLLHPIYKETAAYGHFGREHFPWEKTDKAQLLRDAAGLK [P0A817]",
    "label_class": "0 (no)"
  },
  {
    "chain_sequence": "MVKKAIVTAMAVISLFTLMGCNNRAEVDTLSPAQAAELKPMPQSWRGVLPCADCEGIETSLFLEKDGTWVMNERYLGAREEPSSFASYGTWARTADKLVLTDSKGEKSYYRAKGDALEMLDREGNPIESQFNYTLEAAQSSLPMTPMTLRGMYFYMADAATFTDCATGKRFMVANNAELERSYLAARGHSEKPVLLSVEGHFTLEGNPDTGAPTKVLAPDTAGKFYPNQDCSSLGQ",
    "label_class": "1 (yes)"
  },
  {
    "chain_sequence": "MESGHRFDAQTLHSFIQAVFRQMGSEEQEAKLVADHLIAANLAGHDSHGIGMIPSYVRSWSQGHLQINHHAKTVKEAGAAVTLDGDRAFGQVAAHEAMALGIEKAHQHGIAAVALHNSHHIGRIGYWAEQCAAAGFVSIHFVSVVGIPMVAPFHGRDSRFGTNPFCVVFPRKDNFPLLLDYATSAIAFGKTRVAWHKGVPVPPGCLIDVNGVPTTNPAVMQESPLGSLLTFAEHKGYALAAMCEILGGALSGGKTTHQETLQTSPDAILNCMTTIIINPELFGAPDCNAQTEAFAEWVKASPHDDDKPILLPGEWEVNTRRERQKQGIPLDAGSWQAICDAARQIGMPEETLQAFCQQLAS",
    "label_class": "1 (yes)"
  }
]

Prompt: # bool: total protein half-life in vivo of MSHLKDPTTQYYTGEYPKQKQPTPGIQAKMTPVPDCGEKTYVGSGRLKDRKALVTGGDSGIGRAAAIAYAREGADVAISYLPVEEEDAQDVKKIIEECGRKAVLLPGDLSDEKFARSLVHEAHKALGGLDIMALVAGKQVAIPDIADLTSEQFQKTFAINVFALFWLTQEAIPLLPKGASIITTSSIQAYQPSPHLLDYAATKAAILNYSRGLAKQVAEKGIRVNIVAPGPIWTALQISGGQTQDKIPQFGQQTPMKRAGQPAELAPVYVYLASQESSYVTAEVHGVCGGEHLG [P0AG84] >= 4 h
Response: 1 (yes)

Prompt: # bool: total protein half-life in vivo of MRTTSFAKVAALCGLLALSGCASKITQPDKYSGFLNNYSDLKETTSATGKPVLRWVDPSFDQSKYDSIVWNPITYYPVPKPSTQVGQKVLDKILNYTNTEMKEAIAQRKPLVTTAGPRSLIFRGAITGVDTSKEGLQFYEVVPVALVVAGTQMATGHRTMDTRLYFEGELIDAATNKPVIKVVRQGEGKDLNNESTPMAFENIKQVIDDMATDATMFDVNKK >= 4 h
Response: 1 (yes)

Prompt: # bool: total protein half-life in vivo of MKKIGVILSGCGVYDGSEIHEAVLTLLAISRSGAQAVCFAPDKQQVDVINHLTGEAMTETRNVLIEAARITRGEIRPLAQADAAELDALIVPGGFGAAKNLSNFASLGSECTVDRELKALAQAMHQAGKPLGFMCIAPAMLPKIFDFPLRLTIGTDIDTAEVLEEMGAEHVPCPVDDIVVDEDNKIVTTPAYMLAQNIAEAASGIDKLVSRVLVLAE [P0ABU5] >= 4 h
Response: 1 (yes)

Prompt: # bool: total protein half-life in vivo of MTIWVDADACPNVIKEILYRAAERMQMPLVLVANQSLRVPPSRFIRTLRVAAGFDVADNEIVRQCEAGDLVITADIPLAAEAIEKGAAALNPRGERYTPATIRERLTMRDFMDTLRASGIQTGGPDSLSQRDRQAFAAELEKWWLEVQRSRG [P0A8D3] >= 4 h
Response: 0 (no)
